The measurements presented in this section are drawn from PubChem BioAssay.

Test: Plasmodium falciparum growth inhibition, primary screen, strain 3D7, DAPI fluorescence, 100 nL (AID 1184);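 note: parasites grown inside human red blood cells in medium with human serum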
Details: P. falciparum 3D7 growth, 3 d, higher = more signal
// -1 strictly below -1 in z-score; 1 otherwise

## Input Is reported z-score greater than or equal to -1 here: `CC(=CC1CCCCC1)[C@@H](NC(=O)c1ccc(C(F)(F)F)cc1)c1ccc(-c2ccccc2)cc1`
## Output 1

## Input Is the recorded value of z-score equal to or greater than -1 for this molecule? `[N-]=[N+]=NCc1ccccc1[C@H]1OC(c2ccc(OCCCO)cc2)=N[C@@]1(CCS(=O)(=O)c1ccccc1)C(=O)N1CCOCC1`
## Output -1

## Input Does z-score meet or surpass -1 for N#Cc1ccc(NN2C(C(O)c3cccs3)C=CC3C(=O)N(c4ccccc4)C(=O)C32)cc1 (centres undefined) ?
## Output 1

## Input Hi, just wondering whether `C[N+](C)(C)CCCCCCNC(=O)[C@H]1C[C@H]2C(=O)N3CCC[C@H]3C(=O)N2[C@H]1c1ccc(O)cc1` shows z-score of -1 or higher.
## Output -1

## Input Tell me whether z-score is at least -1 here: `CC(C)Cc1ccc(CN2CC[C@@H](NS(=O)(=O)c3ccccc3)C2)cc1`
## Output 1

## Input Determine whether measured z-score meets or exceeds -1 for `C=CCNC(=O)[C@@H]1[C@H]2C(=O)O[C@H](c3ccccc3)[C@H](c3ccccc3)N2[C@H](c2ccccc2OCCO)[C@@]12C(=O)Nc1ccc(C#CC3=CCCCC3)cc12`
## Output -1

## Input API: above_or_equal(metric=z-score, cutoff=-1) for item `COC(=O)C(CC#Cc1ccc2c(c1)[C@]1(C(=O)N2)[C@H](C(=O)NC[C@H](O)c2ccccc2)[C@H]2C(=O)O[C@H](c3ccccc3)[C@H](c3ccccc3)N2[C@@H]1c1ccc(OCCO)cc1)C(=O)OC`
## Output -1

## Input Reported z-score reaches at least -1 for `COc1ccc([Si](C)(C)[C@H]2[C@H](CC(=O)N(CCO)Cc3ccccc3)O[C@@]3(C(=O)N(Cc4cccc(N5CCC5=O)c4)c4ccccc43)[C@@H]2C)cc1` ?
## Output -1

## Input Decide: z-score of `COC(=O)[C@@]1(Cc2ccc(OC)cc2)[C@H]2c3cc(C(=O)N4CCCC4)n(Cc4ccccn4)c3C[C@H]2CN1C(=O)c1ccccc1` >= -1?
## Output -1

## Input Is z-score at least -1? Consider `CC(C)C(=C=CC[C@H](O)c1cccc(OCCO)c1)C[C@H](O)COCc1ccccc1`
## Output -1

## Input Could you verify whether the entry `C=CCN1C(=O)[C@]2(O[C@H](CCO)[C@@H]([Si](C)(C)c3ccc(OC)cc3)[C@@H]2C)c2cc(NC(=O)[C@H](C)O)ccc21` shows z-score of no less than -1?
## Output -1

## Input I'd appreciate it if you could say whether `CN(C)C(=O)[C@]1(CCC(=O)OC(C)(C)C)N=C(c2ccc(OCCCO)cc2)O[C@@H]1c1ccccc1N=[N+]=[N-]` has z-score at least equal to -1.
## Output -1

## Input Check if z-score >= -1 (inclusive). Item: `COCC(=C=CC[C@@H](O)c1ccc(CO)o1)CCO`
## Output -1

## Input Confirm if z-score reported for the molecule `CCOC(=O)C[C@H]1[C@H](OC(=O)c2ccc(-c3ccccc3)cc2)[C@@H](NC(=O)c2ccc3ccccc3c2)c2cc(OCCCO)ccc2N1C(=O)Cc1ccc(OC)cc1` is -1 or above.
## Output 1

###

Provide the recorded z-score for the entries that follow.
Assay: E. coli acrAB mutant growth effects, primary screen, E. coli filamentation inducers, strain DRC39, OD650, 24 h (AID 1178);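 note: growth measured as culture turbidity by optical density at 650 nm; test concentration not given here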
Conditions: higher = more signal, called active from +8 up or from −8 down
When you answer, write just the number.

## Input Which z-score value belongs to O=C1C2C=CC(C(O)c3cccs3)N(Nc3ccccc3F)C2C(=O)N1c1ccccc1 (stereo not given) ?
## Output -0.0052

## Input Need z-score of COc1cccc(C(=O)O[C@H]2CC[C@]3(C)C4=C(CCC3C2(C)C)[C@]2(C)CC[C@H]([C@H](C)CCCC(C)C)[C@@]2(C)CC4)c1 (stereo not given in full) , thanks.
## Output 0.621

## Input What z-score value was documented for this compound, COC(=O)C1=CC(CCCO)=CC(C2CC2)N(Cc2sc3ccccc3c2Cl)C=C1C(=O)OC (stereo not given) ?
## Output 0.386

## Input What does the record list as z-score for `CCOC(=O)C[C@H]1[C@H](OC(=O)c2ccc(C(=O)c3ccccc3)cc2)[C@@H](NC(=O)C2CCCCC2)c2cc(OCCCO)ccc2N1C(=O)c1ccccc1` ?
## Output -0.715

## Input Requested read-out: z-score. Entry: `COc1ccc(C(=O)Nc2cccc(CN3C(=O)[C@@]4(O[C@@H](CCn5cc(CCO)nn5)[C@H]([Si](C)(C)c5ccc(OC)cc5)[C@H]4C)c4ccccc43)c2)cc1`
## Output 1.7

## Input Bench note: what z-score did `Cc1ccc([C@H]2[C@H](C(=O)O)[C@H](Sc3ccccc3)[C@@H](C(C)C)N2S(=O)(=O)c2ccc(C)cc2)cc1` show?
## Output -1.44

## Input Item COc1ccc(C(O)C2C=CC3C(=O)N(C)C(=O)C3N2Nc2ccccc2)cc1OCc1ccccc1 (stereo not given) has what recorded z-score?
## Output -1.02

## Input // lookup z-score for `O=C1N(CCS(=O)(=O)c2ccccc2)Cc2ccccc2C[C@]12N=C(c1ccc(OCCCO)cc1)O[C@@H]2c1ccccc1`
## Output -0.0937

## Input Query (compound): `Cc1ccc(S[C@]2(C(=O)O)CC(=O)N(C3Cc4ccccc4C3)[C@@H]2c2ccc(CO)cc2I)cc1` ; field requested: z-score
## Output 0.602

## Input Give the measured z-score of `CCOC(=O)C1=C[C@@H](CC)N(S(=O)(=O)c2ccc(C)cc2)[C@H]1c1ccccc1` .
## Output -0.823

## Input What value of z-score has been reported for the following compound? `COC(=O)[C@@]1(Cc2ccccc2)[C@H]2c3cc(C(=O)N(C)C)n(Cc4c(-c5ccccc5)noc4C)c3C[C@H]2CN1C(=O)c1ccccc1`
## Output -0.539

## Input Endpoint output: z-score of `COc1ccc(C#Cc2ccc3c(c2)[C@]2(C(=O)N3)[C@H](c3ccc(O)cc3)N3[C@H](c4ccccc4)[C@H](c4ccccc4)OC(=O)[C@H]3[C@@H]2C(=O)N2CCCCCCC2)cc1` . Value?
## Output -0.525

## Input Item under review: `Cc1ccc(S[C@]2(C(=O)NC3CC3)CC(=O)N(Cc3ccccc3)[C@@H]2c2ccc(CO)cc2)cc1` . Reported z-score?
## Output 0.354

## Input For the compound shown here, `CC(C)NC(=O)[C@@H]1c2ccccc2C(=O)N(Cc2ccccc2)[C@H]1c1ccc(CO)cc1` , give the reported z-score.
## Output 0.0003

## Input Requested field: z-score. Item: `O=c1cccc(C=Cc2ccccc2)o1`
## Output -0.131

###

Test: small-molecule microarray binders of probe aEGFR, primary screen, biochemical, biotinylated probe, 635/667 nm fluorescence (AID 1097);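 note: probe is a biotinylated anti-EGFR antibody binding compounds printed on slides; score combines fluorescence near 667 nm and signal to noise of each spot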
Details: higher = more signal
value_type: composite z-score

## Input Need composite z-score of `COCCOC(=O)N1C(=O)[C@@]2(c3cc(C#CCC(C(=O)OC)C(=O)OC)ccc31)[C@H](C(=O)N1CCCCCCC1)[C@H]1C(=O)O[C@H](c3ccccc3)[C@H](c3ccccc3)N1[C@@H]2c1ccc(OCCO)cc1` , thanks.
## Output 1.26

## Input Any idea what composite z-score was measured for `COC(=O)C(CC#Cc1ccc2c(c1)[C@]1(C(=O)N2)[C@H](c2ccc(OCCO)cc2)N2[C@H](c3ccccc3)[C@H](c3ccccc3)OC(=O)[C@H]2[C@@H]1C(=O)NC[C@H](O)c1ccccc1)C(=O)OC` ?
## Output -0.0856

## Input Quick check: composite z-score of N#Cc1ccc(NN2C(C(O)c3cccs3)C=CC3C(=O)N(c4ccccc4)C(=O)C32)cc1 (stereo unspecified) ?
## Output -0.0357

## Input Please report the recorded composite z-score for `COc1ccc([Si](C)(C)[C@@H]2[C@@H](CCn3cc([C@H](O)c4ccccc4)nn3)O[C@]3(C(=O)N(Cc4cccc(N5CCOC5=O)c4)c4ccccc43)[C@H]2C)cc1` .
## Output -0.278

## Input // returns reported composite z-score for input COc1cc(C(O)C2C=CC3C(=O)N(c4ccccc4)C(=O)C3N2Nc2ccc(C#N)cc2)cc(OC)c1OC (stereo unspecified)
## Output 0.273

## Input What value of composite z-score has been reported for the following molecule? `CCCC[C@H]1OB(O)C[C@H]2C1=C(C)C[C@H]1C(=O)N(Cc3ccccc3)C(=O)[C@H]12`
## Output 0.0215

###

Assignment: determine reported composite z-score for the given compounds.
Tested on: glycogen synthase kinase-3 (GSK3A per assay name; protocol says GSK3B)
Assay: GSK3 binders on small-molecule microarrays, primary screen, biochemical, small-molecule microarray, 635 nm fluorescence, GSK3A (AID 1103); note: the record names both GSK3A and GSK3B
Details: small-molecule microarray binding, fluorescence 635 nm; higher = more signal

## Input I am curious: what composite z-score value has been reported for Cc1cc(C)c(C(O)C2C=CC3C(=O)N(c4ccccc4)C(=O)C3N2Nc2ccc(C#N)cc2)c(C)c1 (centres undefined) ?
## Output 1.22

## Input What measured composite z-score goes with `COc1ccc(CCNC(=O)[C@@H]2c3ccccc3C(=O)N(Cc3ccc(OC(F)(F)F)cc3)[C@H]2c2ccc(CO)cc2)cc1` ?
## Output 0.965

## Input Could you tell me which composite z-score is on file for `COC(=O)C[C@H]1O[C@]2(C(=O)N(Cc3ccccc3)c3ccc(NC(C)=O)cc32)[C@@H](C)[C@@H]1[Si](C)(C)c1ccc(OC)cc1` ?
## Output 0.985

## Input Consider the compound shown here: `CC(C)(C)OC(=O)CC[C@@]1(C(=O)O)N=C(c2ccc(OCCCO)cc2)O[C@@H]1c1ccccc1N=[N+]=[N-]` What is its recorded composite z-score?
## Output 0.357

## Input Quick check: composite z-score of `CN(C)CCCCCCNC(=O)[C@H]1C[C@H]2C(=O)N[C@@H](CCCCN)C(=O)N2[C@H]1c1ccc(O)cc1` ?
## Output 1.48

## Input Fill in the blank: the reported composite z-score of `O=C1[C@]2(CO)C=C(Br)[C@@H](C[C@@H]2c2ccccc2)[C@@]12CO2` is ____.
## Output -0.626

## Input So what does the record say about composite z-score for `C=C(COC)C(=O)CC[C@@H](OC(=O)c1cccnc1)c1ccc(CO)o1` ?
## Output 0.457

## Input Look at this compound and give its reported composite z-score. `O=C(CCN1CCOCC1)c1cccc(O)c1`
## Output 1.22

## Input Look up composite z-score for this compound: CC(C)c1ccc(NN2C(C(O)c3c(F)cccc3Cl)C=CC3C(=O)N(c4ccccc4)C(=O)C32)cc1 (centres undefined)
## Output 0.852

## Input Return reported composite z-score; argument: `[N-]=[N+]=Nc1ccccc1[C@@H]1OC(c2ccc(OCCCO)cc2)=N[C@]1(CCS(=O)(=O)c1ccccc1)C(=O)N1CCOCC1`
## Output 1.09

## Input Looking for the measured composite z-score of `COCCOC(=O)N1C(=O)[C@@]2(c3cc(C#CCC(C(=O)OC)C(=O)OC)ccc31)[C@H](C(=O)N1CCCCCCC1)[C@H]1C(=O)O[C@H](c3ccccc3)[C@H](c3ccccc3)N1[C@@H]2c1ccc(OCCO)cc1` , can you help?
## Output 1.35

## Input What value of measured composite z-score is listed for `COCCOC(=O)N1C(=O)[C@@]2(c3cc(C#CCC(C(=O)OC)C(=O)OC)ccc31)[C@H](C(=O)N1CCN(c3ncccn3)CC1)[C@H]1C(=O)O[C@H](c3ccccc3)[C@H](c3ccccc3)N1[C@@H]2c1ccc(OCCO)cc1` ?
## Output 1.1

## Input I would be grateful if you could share the reported composite z-score for CC1CC/C=C\[C@H]2OC34C=CCN(Cc5ccccc5)C(=O)[C@H]3N(CCCCCO)C(=O)[C@@H]4C2C(=O)O1 (some centres undefined) .
## Output -1.42

## Input Entry under review: `COc1ccc(C#Cc2ccc3c(c2)[C@]2(C(=O)N3)[C@H](c3ccc(O)cc3)N3[C@H](c4ccccc4)[C@H](c4ccccc4)OC(=O)[C@H]3[C@@H]2C(=O)N2CCCCCCC2)cc1` . Reported composite z-score?
## Output 1.33
